Tested on: c-Src
assay-details: phosphorylation enrichment, bacterial display (enrichment ratio); higher = better substrate or ligand; peptides without Tyr show the background;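 further: 11-residue human phosphosite peptides and single-mutation variants displayed on the E. coli surface, counted by deep sequencing, each peptide's frequency after selection divided by its frequency in the unselected input library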;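 further: frequency after pTyr selection over input frequency; kinase dosed for 20-30% of maximal phosphorylation in three min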
Record form. Attribute: phosphorylation enrichment. Fill in for each entry.
Answer field: number only, no words.

**Query** Requested field: phosphorylation enrichment. Item: ACCLLYHGDVV [TUBA4A_Y319_R320H]
**Result** 5.43

**Query** Fill in the blank: the reported phosphorylation enrichment of EIIPFYGMSTY [FNDC3B_Y175] is ____.
**Result** 0.902

**Query** // query phosphorylation enrichment value for entry ANAFIYDVQLP [L1CAM_Y420_V421D_YF]
**Result** 4.96

====

experimental-target: MERTK (UniProt Q12866)
Sequence (Q12866 whole entry, looked up): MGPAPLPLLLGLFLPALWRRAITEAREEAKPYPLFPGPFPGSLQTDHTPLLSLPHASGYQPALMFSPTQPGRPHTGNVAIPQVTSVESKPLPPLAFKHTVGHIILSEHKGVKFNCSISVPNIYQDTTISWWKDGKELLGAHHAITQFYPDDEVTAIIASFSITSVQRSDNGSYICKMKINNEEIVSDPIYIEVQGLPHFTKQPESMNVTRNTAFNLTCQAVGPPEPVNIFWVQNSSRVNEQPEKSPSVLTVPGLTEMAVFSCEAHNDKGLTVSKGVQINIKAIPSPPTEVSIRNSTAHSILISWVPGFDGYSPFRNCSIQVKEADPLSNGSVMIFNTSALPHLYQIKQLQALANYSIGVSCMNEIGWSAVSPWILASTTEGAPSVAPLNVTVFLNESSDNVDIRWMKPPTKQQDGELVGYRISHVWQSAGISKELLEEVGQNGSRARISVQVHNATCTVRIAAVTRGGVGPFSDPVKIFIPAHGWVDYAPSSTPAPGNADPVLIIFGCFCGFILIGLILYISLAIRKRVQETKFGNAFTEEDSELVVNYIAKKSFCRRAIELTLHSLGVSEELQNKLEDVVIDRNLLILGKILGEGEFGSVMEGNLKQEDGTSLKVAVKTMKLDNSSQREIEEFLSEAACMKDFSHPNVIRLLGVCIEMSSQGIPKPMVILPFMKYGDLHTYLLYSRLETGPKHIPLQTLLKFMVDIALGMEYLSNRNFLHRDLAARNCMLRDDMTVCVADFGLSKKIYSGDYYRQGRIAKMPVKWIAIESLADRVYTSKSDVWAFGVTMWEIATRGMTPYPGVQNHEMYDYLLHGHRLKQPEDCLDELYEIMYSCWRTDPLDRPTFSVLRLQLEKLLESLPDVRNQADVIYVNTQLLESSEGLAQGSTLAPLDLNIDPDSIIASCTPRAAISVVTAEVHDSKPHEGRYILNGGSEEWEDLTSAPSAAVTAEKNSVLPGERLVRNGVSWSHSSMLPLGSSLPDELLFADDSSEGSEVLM
assay-details: phosphorylation enrichment, bacterial display (enrichment ratio); higher = better substrate or ligand; peptides without Tyr show the background
quantity-measured: phosphorylation enrichment
Please respond with just the number, no unit label.

**Query** Hi! What's the reported phosphorylation enrichment for ITVCDYTNPCP [MYD88_Y276_T281P] on MERTK (UniProt Q12866)?
**Result** 0.333

**Query** MERTK (UniProt Q12866) / phosphorylation enrichment / LITLVYGCSRQ [TMPRSS6_Y290_S288L] : value?
**Result** 0.851

**Query** Field: phosphorylation enrichment (MERTK (UniProt Q12866)). Entry: PTQLPYDHKWE [KIT_Y578]
**Result** 0.449

**Query** Request - read-out phosphorylation enrichment | tested on MERTK (UniProt Q12866) | sequence HHTDECEYDEL [TGM1_Y134_Y134C]
**Result** 0.641

**Query** What phosphorylation enrichment appears in the records for this sequence with MERTK (UniProt Q12866)? RALRHYFKLNI [ETV6_Y401_YF]
**Result** 0.4

**Query** Look up phosphorylation enrichment with MERTK (UniProt Q12866) for this sequence: EKRDAYVSCLN [GSR_Y150_R153C]
**Result** 0.472

**Query** Missing value: phosphorylation enrichment, MERTK (UniProt Q12866), entry GLIPAYHRFIM [NMNAT1_Y64_V67F] . Fill in?
**Result** 0.593

**Query** So what phosphorylation enrichment did EIEFLYNENTV [IARS1_Y680] get with MERTK (UniProt Q12866)?
**Result** 0.515

**Query** Request: phosphorylation enrichment, test system MERTK (UniProt Q12866), entry PVQAAYQKVVA [HBB_Y131]
**Result** 0.716

====

System: c-Abl (mouse)
assay-details: phosphorylation enrichment, bacterial display (enrichment ratio); higher = better substrate or ligand; peptides without Tyr show the background
Class true (1): phosphorylation enrichment at least 0.8. Class false (0): phosphorylation enrichment below 0.8.

**Query** Identify whether the reported phosphorylation enrichment of the following sequence is 0.8 or greater: VFAPDFIAGVS [NOB1_Y366_Y366F]
**Result** false (0)

**Query** Threshold query (phosphorylation enrichment >= 0.8) on VVQGIYGYHHY [UFSP2_Y285]
**Result** true (1)

**Query** Is phosphorylation enrichment for LKLIQYHLTQQ [AKAP4_Y554] at or above 0.8?
**Result** false (0)

**Query** Does FAADFYKLLGN [ROR2_Y646_YF] have a reported phosphorylation enrichment of at least 0.8?
**Result** false (0)

**Query** # check: phosphorylation enrichment of QLQVFYATLDQ [MIPEP_Y579] is greater than or equal to 0.8
**Result** true (1)

**Query** Quick check, phosphorylation enrichment >= 0.8? KMKGDYYRSLA [YWHAG_Y130_Y133S]
**Result** false (0)

**Query** Decide: is the reported value of phosphorylation enrichment for PKGIRYGQGAG [CSRP3_Y73_G72R] equal to or greater than 0.8?
**Result** true (1)

**Query** Check the entry ADEDIYGVLPA [LYNtide_2014] : does phosphorylation enrichment equal or exceed 0.8?
**Result** true (1)

**Query** Please indicate if the recorded phosphorylation enrichment for LRTAVYHEILI [CREBBP_Y1450] meets or exceeds 0.8.
**Result** true (1)

**Query** Does phosphorylation enrichment meet or surpass 0.8 for ILGRTHYVNHE [NEDD4_Y627_Y627H] ?
**Result** false (0)

**Query** Item NSAFFYKTAEE [CCT6B_Y250_G247A] with phosphorylation enrichment of 0.8 or above?
**Result** false (0)

**Query** Decide: is the reported value of phosphorylation enrichment for MDDPRYGVCPL [ZNF100_Y6_M8V] equal to or greater than 0.8?
**Result** true (1)

**Query** Is phosphorylation enrichment for TSIGNYFKPWF [DHCR24_Y299_N294T_YF] at or above 0.8?
**Result** true (1)

**Query** Does the sequence SQSKGYRPKLY [SIPA1L3_Y1376_G1371S] have recorded phosphorylation enrichment that is 0.8 or more?
**Result** false (0)

**Query** Please tell me: is the sequence MASISYDYCRV [BST2_Y6_T4I] at or over 0.8 in terms of phosphorylation enrichment?
**Result** false (0)

**Query** Check if phosphorylation enrichment >= 0.8 (inclusive). Item: EQDRAYLEGTC [HLA-C_Y183_L180D]
**Result** true (1)

====

For each of the sequences below, state its phosphorylation enrichment.
experimental-target: EPHB2 (UniProt P29323)
Sequence (P29323 whole entry, looked up): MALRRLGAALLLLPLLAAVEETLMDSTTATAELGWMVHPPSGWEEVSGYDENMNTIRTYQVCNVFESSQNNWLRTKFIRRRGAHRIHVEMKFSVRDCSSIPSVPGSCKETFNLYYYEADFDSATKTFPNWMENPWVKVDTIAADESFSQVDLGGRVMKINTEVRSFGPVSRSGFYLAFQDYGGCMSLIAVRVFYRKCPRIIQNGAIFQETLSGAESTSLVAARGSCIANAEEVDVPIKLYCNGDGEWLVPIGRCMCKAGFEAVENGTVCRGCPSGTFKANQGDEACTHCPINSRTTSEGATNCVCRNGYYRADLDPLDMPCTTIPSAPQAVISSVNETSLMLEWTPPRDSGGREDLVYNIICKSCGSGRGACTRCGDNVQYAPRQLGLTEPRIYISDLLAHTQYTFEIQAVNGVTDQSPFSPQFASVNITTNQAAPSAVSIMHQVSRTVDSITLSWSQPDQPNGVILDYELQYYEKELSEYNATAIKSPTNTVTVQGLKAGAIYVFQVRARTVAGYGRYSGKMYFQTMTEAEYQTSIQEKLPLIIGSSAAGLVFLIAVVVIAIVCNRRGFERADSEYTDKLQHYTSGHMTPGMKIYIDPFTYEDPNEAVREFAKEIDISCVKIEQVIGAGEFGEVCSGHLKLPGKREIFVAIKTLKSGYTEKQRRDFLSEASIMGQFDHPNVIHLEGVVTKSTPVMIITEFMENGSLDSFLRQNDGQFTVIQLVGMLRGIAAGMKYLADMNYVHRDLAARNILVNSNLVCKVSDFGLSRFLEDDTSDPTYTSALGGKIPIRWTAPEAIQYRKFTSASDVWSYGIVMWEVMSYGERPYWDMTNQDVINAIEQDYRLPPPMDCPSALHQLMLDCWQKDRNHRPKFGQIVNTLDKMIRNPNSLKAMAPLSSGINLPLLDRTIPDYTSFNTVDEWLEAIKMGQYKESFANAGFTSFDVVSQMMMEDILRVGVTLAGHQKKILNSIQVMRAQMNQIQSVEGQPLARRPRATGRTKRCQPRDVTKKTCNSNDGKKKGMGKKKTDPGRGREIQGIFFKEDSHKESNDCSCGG
assay-details: phosphorylation enrichment, bacterial display (enrichment ratio); higher = better substrate or ligand; peptides without Tyr show the background

**Query** Bench note: what phosphorylation enrichment did GFCSWYRGWAP [TIMP3_Y195_YF] show?
**Result** 0.597

**Query** // phosphorylation enrichment lookup, key: KYLENYYDLEK [MMP3_Y41_K45E]
**Result** 4.75

**Query** Returns the measured phosphorylation enrichment for the input sequence. Input: PVLSLYASGRT [ACTA1_Y145_A140P]
**Result** 0.548

**Query** Record request: phosphorylation enrichment value, item HFPFQCHRQLY [F12_Y53_Y53C]
**Result** 0.645

**Query** Look up phosphorylation enrichment: QTEAQYRFIFM [PTPN11_Y511_YF]
**Result** 0.467

**Query** Which measured phosphorylation enrichment value corresponds to VEDQYYRVDCY [FHL1_Y208_C209R] ?
**Result** 0.712

**Query** Look up phosphorylation enrichment for this sequence: SVTCTYPPALN [TP53_Y126_S127P]
**Result** 0.578

**Query** Fill blank: measured phosphorylation enrichment of the sequence CTTIHYNFMWN [TP53_Y234_C238W_YF] is ____.
**Result** 0.727

**Query** Query (sequence): HILFRYPKEFQ [IDS_Y234_P231L] ; field requested: phosphorylation enrichment
**Result** 0.797

**Query** What does the data say about its phosphorylation enrichment? Entry: VTPSEYLEIVR [TMEM130_Y412_E407V]
**Result** 0.618

**Query** Which phosphorylation enrichment is listed for TFQFKYPEGSS [TGM4_Y440_E437Q_YF] ?
**Result** 0.478

**Query** Recorded phosphorylation enrichment of YKGKNYKPLDL [RPL35_Y78_K77N] , please.
**Result** 0.246

**Query** Could you tell me which phosphorylation enrichment is on file for KMMGRYEMFAR [UPB1_Y362_T359M_YF] ?
**Result** 0.393

**Query** phosphorylation enrichment for WIPNQYPIISE [NOG_Y222_I220N] ?
**Result** 0.526

**Query** Quick check: phosphorylation enrichment of TVEDHDFEGGI [TKT_Y563_Y563D_YF] ?
**Result** 0.543

**Query** Bench note: what phosphorylation enrichment did HLEKKYVHRDS [CSF1R_Y708_R710H] show?
**Result** 0.314

**Query** Look at this sequence and give its reported phosphorylation enrichment. GHEYIYVDPMQ [PDGFRA_Y574]
**Result** 10.2

**Query** Which phosphorylation enrichment value belongs to RLGVTYEQALA [MAP2_Y996_G991R] ?
**Result** 1.81

**Query** What phosphorylation enrichment value was documented for this sequence, LHRAHYDLCHT [AHSG_Y314_R317C] ?
**Result** 0.542

**Query** Entry under review: TEFIQYMRRKN [MAX_Y73_YF] . Reported phosphorylation enrichment?
**Result** 0.732

**Query** Dear colleague, I am looking for the recorded phosphorylation enrichment of the following sequence: LRLSSYSTTIR [CYP7B1_Y365]
**Result** 0.708

**Query** # phosphorylation enrichment lookup, item SCRENYSFSEE [LEMD3_Y258_D260Y_YF]
**Result** 0.725

**Query** phosphorylation enrichment for TLARLYHRDST [LRIG1_Y1029_P1031R] ?
**Result** 0.539

**Query** Could you share which phosphorylation enrichment value was measured for FQKDVYDIPPS [NEDD9_Y177_YF] ?
**Result** 2.01

**Query** Recorded phosphorylation enrichment of LENSTYQFICV [CRB1_Y760_R764C_YF] , please.
**Result** 2.39

**Query** Param item = LVTAWYIGFLC [KCNQ2_Y237] ; retrieve measured phosphorylation enrichment.
**Result** 0.95

**Query** Using the record for SEKVVYRRFTE [NCF1_Y41] , report its phosphorylation enrichment.
**Result** 0.423

**Query** Reported phosphorylation enrichment for PFVFFYSFLLK [PTEN_Y178_R173P_YF] : what is it?
**Result** 0.686

**Query** I am curious: what phosphorylation enrichment value has been reported for ISKKRYAGLLF [POLD1_Y809] ?
**Result** 0.471

**Query** Consider the sequence SSQHRYSTPHT [RAF1_Y232_A237T] and give its measured phosphorylation enrichment.
**Result** 0.37

**Query** Name the recorded phosphorylation enrichment for SIKDKYVTALY [KCNH2_Y611] .
**Result** 0.403

**Query** Query: phosphorylation enrichment; subject: ASFGPNTRVQS [FOXL2_Y258_Y258N_YF]
**Result** 0.399

**Query** Need phosphorylation enrichment, item SLLPDYEDEEE [ZNF830_Y159]
**Result** 0.829

**Query** Looking for the measured phosphorylation enrichment of QMVGMYASSSM [AVPR2_Y124_Y128S] , can you help?
**Result** 0.403

**Query** Which phosphorylation enrichment is reported for this sequence? RLLVFYPWTQR [HBB_Y36_V35F]
**Result** 0.938

**Query** If you can, please state the reported phosphorylation enrichment value of SEDSEYFRAFE [CASQ2_Y178_K180R_YF] .
**Result** 0.591

**Query** For the sequence shown here, SYTDPYAQPPL [KMT2D_Y2378] , give the reported phosphorylation enrichment.
**Result** 0.482

**Query** If you can, please state the reported phosphorylation enrichment value of KNEVFYQCPDQ [FBXO3_Y223] .
**Result** 2.03

**Query** Give the measured phosphorylation enrichment of KRIETYFSKNY [PLP1_Y50_L46R] .
**Result** 0.365

**Query** Return reported phosphorylation enrichment; argument: HQNGMYRLHQD [SGSH_Y89_G90R]
**Result** 0.745

**Query** What value of measured phosphorylation enrichment is listed for IMVFVYSRVFQ [ADRB2_Y219] ?
**Result** 0.484

**Query** Give the measured phosphorylation enrichment of VFAPDFIAGVS [NOB1_Y366_Y366F] .
**Result** 0.479

**Query** Which phosphorylation enrichment value belongs to NLNGKCNKPRA [ANGPTL3_Y417_Y417C] ?
**Result** 0.41

**Query** Param item = GLIPAYHRFIM [NMNAT1_Y64_V67F] ; retrieve measured phosphorylation enrichment.
**Result** 0.423

**Query** Value lookup for phosphorylation enrichment; key = SKNFTYIWWLN [PSG4_Y271_YF]
**Result** 0.611

**Query** Can you share its phosphorylation enrichment? I mean this sequence: TVLGEYALPKG [CYP24A1_Y407]
**Result** 0.542

**Query** Data request, read-out phosphorylation enrichment, for DPLASYLDKVR [KRT10_Y160_R156P]
**Result** 0.608

**Query** For the sequence KEAQVYQAFKL [SUCLG2_Y343] , what phosphorylation enrichment is on record?
**Result** 0.566

**Query** Suppose we examine the sequence EPNSRYTYKLE [USH2A_Y3745] ; what phosphorylation enrichment value has been reported?
**Result** 0.46

**Query** Sample LSEEKYELKEG [TREM1_Y29_T25S] — what was its phosphorylation enrichment?
**Result** 0.628

**Query** Find the recorded phosphorylation enrichment belonging to KNKELYSDLFD [PDE10A_Y300] and report it.
**Result** 0.794

**Query** Could you share which phosphorylation enrichment value was measured for EDEGLYTVRVP [MYOM3_Y343_M344T] ?
**Result** 0.692

**Query** Could you share which phosphorylation enrichment value was measured for KLSFSYGQALQ [ALDOB_Y302_R304Q] ?
**Result** 0.564

**Query** Find the recorded phosphorylation enrichment belonging to EASGIYVKSII [PATJ_Y396] and report it.
**Result** 0.535
